Let's look at some sequences and their measured total protein half-life in vivo.
experimentDescription: total protein half-life in vivo (active degradation + dilution); higher = more stable protein
conditionsUsed: wild type E. coli NCM3722; growth: P-lim chemostat; doubling time 12 h

{"columns": ["sequenceData", "total protein half-life in vivo"],
 "data": [
  ["MTQFASPVLHSLLDTDAYKLHMQQAVFHHYYDVHVAAEFRCRGDDLLGIYADAIREQVQAMQHLRLQDDEYQWLSALPFFKADYLNWLREFRFNPEQVTVSNDNGKLDIRLSGPWREVILWEVPLLAVISEMVHRYRSPQADVAQALDTLESKLVDFSALTAGLDMSRFHLMDFGTRRRFSREVQETIVKRLQQESWFVGTSNYDLARRLSLTPMGTQAHEWFQAHQQISPDLANSQRAALAAWLEEYPDQLGIALTDCITMDAFLRDFGVEFASRYQGLRHDSGDPVEWGEKAIAHYEKLGIDPQSKTLVFSDNLDLRKAVELYRHFSSRVQLSFGIGTRLTCDIPQVKPLNIVIKLVECNGKPVAKLSDSPGKTICHDKAFVRALRKAFDLPHIKKAS", "5.37 h"],
  ["MDFSLTEEQELLLASIRELITTNFPEEYFRTCDQNGTYPREFMRALADNGISMLGVPEEFGGIPADYVTQMLALMEVSKCGAPAFLITNGQCIHSMRRFGSAEQLRKTAESTLETGDPAYALALTEPGAGSDNNSATTTYTRKNGKVYINGQKTFITGAKEYPYMLVLARDPQPKDPKKAFTLWWVDSSKPGIKINPLHKIGWHMLSTCEVYLDNVEVEESDMVGEEGMGFLNVMYNFEMERLINAARSTGFAECAFEDAARYANQRIAFGKPIGHNQMIQEKLALMAIKIDNMRNMVLKVAWQADQHQSLRTSAALAKLYCARTAMEVIDDAIQIMGGLGYTDEARVSRFWRDVRCERIGGGTDEIMIYVAGRQILKDYQNK [P0A9U8]", "2.42 h"],
  ["MIEKIWSGESPLWRLLLPLSWLYGLVSGAIRLCYKLKLKRAWRAPVPVVVVGNLTAGGNGKTPVVVWLVEQLQQRGIRVGVVSRGYGGKAESYPLLLSADTTTAQAGDEPVLIYQRTDAPVAVSPVRSDAVKAILAQHPDVQIIVTDDGLQHYRLARDVEIVVIDGVRRFGNGWWLPAGPMRERAGRLKSVDAVIVNGGVPRSGEIPMHLLPGQAVNLRTGTRCDVAQLEHVVAMAGIGHPPRFFATLKMCGVQPEKCVPLADHQSLNHADVSALVSAGQTLVMTEKDAVKCRAFAEENWWYLPVDAQLSGDEPAKLLTQLTLLASGN", "13.8 h"],
  ["MRHIFQRLLPRRLWLAGLPCLALLGCVQNHNKPAIDTPAEEKIPVYQLADYLSTECSDIWALQGKSTETNPLYWLRAMDCADRLMPAQSRQQARQYDDGSWQNTFKQGILLADAKITPYERRQLVARIEALSTEIPAQVRPLYQLWRDGQALQLQLAEERQRYSKLQQSSDSELDTLRQQHHVLQQQLELTTRKLENLTDIERQLSTRKPAGNFSPDTPHESEKPAPSTHEVTPDEP [P0AD44]", "12.2 h"],
  ["MKKPLRQQNRQIISYVPRTEPAPPEHAIKMDSFRDVWMLRGKYVAFVLMGESFLRSPAFTVPESAQRWANQIRQEGEVTE [P0AE60]", "9.35 h"],
  ["MPVRASIEPLTWENAFFGVNSAIVRITSEAPLLTPDALAPWSRVQAKIAASNTGELDALQQLGFSLVEGEVDLALPVNNASDSGAVVAQETDIPALRQLASAAFAQSRFRAPWYAPDASSRFYAQWIENAVRGTFDHQCLILRAASGDIRGYVSLRELNATDARIGLLAGRGAGAELMQTALNWAYARGKTTLRVATQMGNTAALKRYIQSGANVESTAYWLYR", "12.6 h"]
]}
